src = paper PMC8347464

system: HaCaT cells (human immortal keratinocyte); test: MTT assay, HaCaT normal cells; type: cell-based; details: Homo sapiens, HaCaT; MTT, 72 h, mean ± SD, normal cells
We label by threshold. Values of IC50 strictly beneath 70 µM are class 1. Values of 70 µM and up are class 0.

Worked cases, answers included:
CC(=O)c1ccc(N2CCN(CCCCCN3C(=O)NC4(CCCc5ccccc54)C3=O)CC2)cc1 (racemic): class 1
CC(=O)c1ccc(N2CCN(CCCCN3C(=O)NC4(CCCc5ccccc54)C3=O)CC2)cc1 (racemic): class 0
CC(=O)c1ccc(N2CCN(CCCCn3ccn4c5c(=O)n(C)c(=O)n(C)c5nc34)CC2)cc1: class 0
CC(=O)c1ccc(N2CCN(CCCCn3c(=O)ccn4c5c(=O)n(C)c(=O)n(C)c5nc34)CC2)cc1: class 0
CC(=O)c1ccc(N2CCN(CCCCN3C(=O)NC4(CCc5ccccc54)C3=O)CC2)cc1 (racemic): class 1
CC(=O)c1ccc(N2CCN(CCCCCN3C(=O)NC4(Cc5ccccc5C4)C3=O)CC2)cc1: class 0

Criterion: IC50 strictly below 70 µM. Is it met by CC(=O)c1ccc(N2CCN(CCCCn3c(C)cn4c5c(=O)n(C)c(=O)n(C)c5nc34)CC2)cc1 ?
class 0

Does CC(=O)c1ccc(N2CCN(CCCCCn3c(=O)ccn4c5c(=O)n(C)c(=O)n(C)c5nc34)CC2)cc1 have IC50 strictly under 70 µM?
class 0

Strictly below 70 µM: is that where IC50 of CC(=O)c1ccc(N2CCN(CCCCCn3ccn4c5c(=O)n(C)c(=O)n(C)c5nc34)CC2)cc1 sits?
class 1
